- Test system: HT29 colon
- experiment_description: NCI-60 one-dose screen, 48 h
- condition_details: 10 µM unless noted
About 83,000 compounds went through this panel and 20% of them were active in at least one assay; those are over-represented in the sample as a whole. Active and inactive are the calls of the source. The calls were made as follows: active = growth percent below 10; inactive = the rest.
Would you mind answering with one of these outcomes? label 1 for active, label 0 for inactive

Query string: Tell me the assay call for `COc1ccc(/C=C2/C(=O)N=C3N2NC(c2ccccc2)=CN3c2ccccc2)cc1` please.
Result string: label 0

Query string: Tell me the assay call for COc1ccc(C2Nc3nc(SC)nc(N)c3N=C3c4ccccc4CCC32)cc1 (stereo not drawn) please.
Result string: label 0

Query string: Tell me the assay call for `Cc1nc2cccc(NCCCCC(=O)NO)c2c(=O)n1-c1ccccc1` please.
Result string: label 0

Query string: Tell me the assay call for `C=C(C)[C@@H]1CC[C@]2(C(=O)N3CCN(C)CC3)CC[C@]3(C)[C@H](CC[C@@H]4[C@@]5(C)CC(CCCNC(C)=O)(CCCNC(C)=O)[C@H](OC(C)=O)C(C)(C)[C@@H]5CC[C@]43C)[C@@H]12` please.
Result string: label 0

Query string: Tell me the assay call for `C=C[C@]1(C)C=C2CC[C@@H]3C(C)(C)C(=O)CC[C@@]3(C)[C@@H]2CC1` please.
Result string: label 0

Query string: Tell me the assay call for O=C1OCC2=C1C(c1cccc(C(F)(F)F)c1)c1cc3c(cc1N2CCO)OCCO3 (stereo not drawn) please.
Result string: label 1

Query string: Tell me the assay call for `Cc1ccc2[nH]c(=S)[nH]c(=O)c2c1` please.
Result string: label 0

Query string: Tell me the assay call for `COC(=O)c1nc(-c2ccc(C)cc2)oc1S(=O)(=O)c1ccc(Cl)cc1` please.
Result string: label 0

Query string: Tell me the assay call for `O=C1C(N2CCOCC2)=C(I)C(=O)c2ncccc21` please.
Result string: label 0

Query string: Tell me the assay call for `Cc1ccc(S(=O)(=O)Nc2cc(Sc3ccccc3)c(O)c3ccccc23)cc1` please.
Result string: label 0

Query string: Tell me the assay call for `CCCCC#Cc1c(/C=C(\CCCC)SCC)n(C)c(=O)[nH]c1=O` please.
Result string: label 0

Query string: Tell me the assay call for `O=C(Cn1cc(CN2CCN(c3ccnc4cc(Cl)ccc34)CC2)nn1)Nc1cccc([N+](=O)[O-])c1` please.
Result string: label 0

Query string: Tell me the assay call for COc1cccc(C2C(C#N)=C(N)Oc3cc(OCCCCCC[P+](c4ccccc4)(c4ccccc4)c4ccccc4)ccc32)c1 (stereo not drawn) please.
Result string: label 1
